System: Caco-2
PROTOCOL DESCRIPTION: Cytotoxicity against human Caco2 cells assessed as cell viability at 100 uM relative to control
Type: functional
CONDITION DETAILS: read-out: Activity
viability at 100 µM strictly less than 90% = Y. Otherwise N.

- SMILES NOTATION: "O=[N+]([O-])c1ccc(NC(CCl)CCl)cc1C(F)(F)F"
  TARGET OR TEST SYSTEM: "Caco-2"
  ANSWER LABEL: "Y"
- SMILES NOTATION: "O=[N+]([O-])c1ccc(NC(CO)CO)cc1C(F)(F)F"
  TARGET OR TEST SYSTEM: "Caco-2"
  ANSWER LABEL: "N"
- SMILES NOTATION: "O=[N+]([O-])c1ccccc1NC(CCl)CCl"
  TARGET OR TEST SYSTEM: "Caco-2"
  ANSWER LABEL: "N"
- SMILES NOTATION: "O=[N+]([O-])c1ccc(NC(CCl)CCl)c(C(F)(F)F)c1"
  TARGET OR TEST SYSTEM: "Caco-2"
  ANSWER LABEL: "Y"

Prompt: viability at 100 µM strictly < 90% for this molecule? `O=[N+]([O-])c1ccc(NC(CO)CO)c(C(F)(F)F)c1`
Completion: N

Prompt: Please determine if `O=[N+]([O-])c1ccccc1NC(CO)CO` is below 90% in terms of viability at 100 µM.
Completion: N

Prompt: Field: below-cutoff. Rule: recorded viability at 100 µM strictly less than 90%. Subject: `O=[N+]([O-])c1ccc(NC(CCl)CCl)c([N+](=O)[O-])c1`
Completion: N

----------
PROTOCOL DESCRIPTION: Cytotoxicity against human MRC5 cells assessed as cell viability at 100 uM relative to control
Assay type: cell-based
CONDITION DETAILS: read-out: Activity
ATTRIBUTE MEASURED: viability at 100 µM (%)
Quick note: give the figure in %, leave out the unit.

Here is how some compounds turned out for viability at 100 µM.
- SMILES NOTATION: "O=[N+]([O-])c1ccc(NC(CCl)CCl)cc1"
  viability at 100 µM, %: 44.9
- SMILES NOTATION: "O=[N+]([O-])c1ccc(NC(CCl)CCl)c([N+](=O)[O-])c1"
  viability at 100 µM, %: 24.3
- SMILES NOTATION: "O=[N+]([O-])c1ccccc1NC(CCl)CCl"
  viability at 100 µM, %: 54.8

Prompt: Identify measured viability at 100 µM corresponding to `O=[N+]([O-])c1ccccc1NC(CO)CO`
Completion: 101

Prompt: Give the measured viability at 100 µM for `O=[N+]([O-])c1ccc(NC(CCl)CCl)cc1C(F)(F)F`
Completion: 22.1

----------
Below, each entry is listed with its recorded IC50.
System: SUNE1
PROTOCOL DESCRIPTION: Cytotoxicity against human SUNE1 cells assessed as reduction in cell viability
Format: functional, cell-based

Before answering, review these 3 worked examples.
- SMILES NOTATION: "O=[N+]([O-])c1ccc(NC(CO)CO)cc1C(F)(F)F"
  IC50: "> 100 µM"
- SMILES NOTATION: "O=[N+]([O-])c1ccccc1NC(CO)CO"
  IC50: "> 100 µM"
- SMILES NOTATION: "O=[N+]([O-])c1ccc(NC(CCl)CCl)cc1C(F)(F)F"
  IC50: "93.1 µM"

Prompt: Determine its reported IC50: `O=[N+]([O-])c1ccc(NC(CCl)CCl)c(C(F)(F)F)c1`
Completion: 55.1 µM

Prompt: Answer with reported IC50 of `O=[N+]([O-])c1ccc(NC(CCl)CCl)c([N+](=O)[O-])c1`
Completion: > 100 µM

Prompt: Provide only the value of recorded IC50 for `O=[N+]([O-])c1ccccc1NC(CCl)CCl`
Completion: > 100 µM

Prompt: Quick one: give measured IC50 for `O=[N+]([O-])c1ccc(NC(CCl)CCl)cc1`
Completion: > 100 µM

Prompt: For the molecule `O=[N+]([O-])c1ccc(NC(CO)CO)cc1` , give its reported IC50.
Completion: > 100 µM

Prompt: Note IC50 for the molecule shown: `O=[N+]([O-])c1ccc(NC(CO)CO)c(C(F)(F)F)c1`
Completion: > 100 µM

Prompt: Assign IC50 to the following record: `O=[N+]([O-])c1ccc(NC(CO)CO)c([N+](=O)[O-])c1`
Completion: > 100 µM

Prompt: State its IC50 for this molecule: `O=[N+]([O-])c1cc(C(F)(F)F)ccc1NC(CO)CO`
Completion: > 100 µM

Prompt: Kindly indicate its recorded IC50. Item: `O=[N+]([O-])c1cc(C(F)(F)F)ccc1NC(CCl)CCl`
Completion: 92.9 µM

----------
System: SUNE1
PROTOCOL DESCRIPTION: Cytotoxicity against human SUNE1 cells assessed as cell viability at 100 uM relative to control
Assay type: functional
CONDITION DETAILS: read-out: Activity
Collected viability at 100 µM values appear next to each entry.
Numeric answer only, unit % assumed.

Prompt: Please indicate viability at 100 µM recorded for `O=[N+]([O-])c1ccc(NC(CCl)CCl)c(C(F)(F)F)c1`
Completion: 38.6

Prompt: Provide viability at 100 µM value for the following molecule: `O=[N+]([O-])c1ccc(NC(CCl)CCl)cc1C(F)(F)F`
Completion: 44.9

Prompt: Hello, please tell me recorded viability at 100 µM for this one: `O=[N+]([O-])c1ccc(NC(CCl)CCl)c([N+](=O)[O-])c1`
Completion: 68.6

Prompt: Tell me its viability at 100 µM given `O=[N+]([O-])c1cc(C(F)(F)F)ccc1NC(CO)CO` as the entry.
Completion: 83.4

Prompt: Consider the molecule `O=[N+]([O-])c1ccc(NC(CCl)CCl)cc1` and give its recorded viability at 100 µM.
Completion: 110

Prompt: Hello, please tell me recorded viability at 100 µM for this one: `O=[N+]([O-])c1ccc(NC(CO)CO)cc1`
Completion: 109

----------
Tested on: HT-29
PROTOCOL DESCRIPTION: Cytotoxicity against human HT-29 cells assessed as reduction in cell viability
Format: functional, cell-based
ATTRIBUTE MEASURED: IC50

- SMILES NOTATION: "O=[N+]([O-])c1ccc(NC(CCl)CCl)cc1C(F)(F)F"
  IC50: "63.1 µM"

Prompt: Look up IC50 of `O=[N+]([O-])c1ccccc1NC(CO)CO` and report it.
Completion: > 100 µM

Prompt: Quote IC50 reported for `O=[N+]([O-])c1ccc(NC(CO)CO)cc1` please.
Completion: > 100 µM

Prompt: Tell me its IC50 given `O=[N+]([O-])c1ccc(NC(CO)CO)cc1C(F)(F)F` as the entry.
Completion: > 100 µM

Prompt: Name the recorded IC50 of the compound listed here: `O=[N+]([O-])c1ccc(NC(CO)CO)c([N+](=O)[O-])c1`
Completion: > 100 µM

Prompt: Input `O=[N+]([O-])c1ccc(NC(CCl)CCl)cc1` , output reported IC50.
Completion: > 100 µM

Prompt: Recall and state the measured IC50 for `O=[N+]([O-])c1ccc(NC(CO)CO)c(C(F)(F)F)c1` .
Completion: > 100 µM

Prompt: Input `O=[N+]([O-])c1ccc(NC(CCl)CCl)c([N+](=O)[O-])c1` , output reported IC50.
Completion: > 100 µM

Prompt: Report IC50 for `O=[N+]([O-])c1cc(C(F)(F)F)ccc1NC(CCl)CCl`
Completion: 87.8 µM

Prompt: Specify IC50 for `O=[N+]([O-])c1ccccc1NC(CCl)CCl` and stop.
Completion: > 100 µM

Prompt: Give reported IC50 value for `O=[N+]([O-])c1cc(C(F)(F)F)ccc1NC(CO)CO`
Completion: > 100 µM

Prompt: Write down IC50 measured for item `O=[N+]([O-])c1ccc(NC(CCl)CCl)c(C(F)(F)F)c1`
Completion: 92.1 µM

----------
# Lookup of reported IC50 keyed by entry
Tested on: SW1990
PROTOCOL DESCRIPTION: Cytotoxicity against human SW1990 cells assessed as reduction in cell viability
Assay type: functional, cell-based

Prompt: Item `O=[N+]([O-])c1cc(C(F)(F)F)ccc1NC(CCl)CCl` : provide IC50
Completion: 92.1 µM

Prompt: Please supply the value of reported IC50 for the item `O=[N+]([O-])c1ccc(NC(CCl)CCl)cc1`
Completion: > 100 µM

Prompt: Please supply the value of reported IC50 for the item `O=[N+]([O-])c1ccc(NC(CO)CO)c(C(F)(F)F)c1`
Completion: > 100 µM

Prompt: State its IC50: `O=[N+]([O-])c1ccc(NC(CCl)CCl)c(C(F)(F)F)c1`
Completion: 33.3 µM

Prompt: Answer with the recorded IC50 for the compound listed here: `O=[N+]([O-])c1ccccc1NC(CO)CO`
Completion: > 100 µM

Prompt: Quote IC50 reported for `O=[N+]([O-])c1ccc(NC(CO)CO)c([N+](=O)[O-])c1` please.
Completion: > 100 µM

Prompt: Return reported IC50. Input compound: `O=[N+]([O-])c1ccc(NC(CO)CO)cc1`
Completion: > 100 µM
